# test: NCI Yeast Anticancer Drug Screen. Data for the rad50 strain (AID 155);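 also: 0% = growth of vehicle-only cultures of the same strain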
# condition.parameters: S. cerevisiae rad50 strain growth inhibition; at 50.0 µM; stronger effect = higher value
This is part of a sample that, as a whole, favours compounds with a hit. Of some 79,000 tested, about 15% had one in any assay.
// map growth inhibition to label using L (below 70%), M (70% to below 90%), H (90% or more)

compound	answer.label
O=C(O)c1ccccc1/C=N/N=C1c2ccccc2-c2ccccc21	L
O=[N+]([O-])c1cc(F)c(F)cc1Sc1cc(F)c(F)cc1[N+](=O)[O-]	H
CC(O)=NC(Cc1ccc2ccccc2c1)C(O)=NC(Cc1ccc(Cl)cc1)C(O)=NC(Cc1c[nH]c2ccccc12)C(O)=NC(CO)C(O)=NC(Cc1ccc(O)cc1)C(O)=NC(CCCN=C(N)N)C(O)=NC(CC(C)C)C(O)=NC(CCCN=C(N)N)C(=O)N1CCCC1C(O)=NC(C)C(=N)O (configuration not stated)	L
O=C1C=C(Cl)C(=O)N1c1cccc(Cl)c1	H
O=C1Nc2ccc(Br)cc2C1=Nc1ccc2c(c1)OCO2	L

Please turn your attention to the following entry.
IN: Kindly state the category for this compound: NC1=NNC2(C(N)=N1)c1ccccc1-c1ccccc12
OUT: M

* * *

# test: NCI Yeast Anticancer Drug Screen. Data for the rad50EPP+ strain (AID 151);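 also: 0% = growth of vehicle-treated control cultures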
# condition.parameters: S. cerevisiae rad50 mutant strain, at 1.2 µM, stronger effect = higher value
This is part of a sample that, as a whole, favours compounds with a hit. Of some 79,000 tested, about 15% had one in any assay.
assay.readout: growth inhibition (%)
Give the number; % is assumed, so skip it.

molecule	growth inhibition, %
CN(C)Cc1cc(N=Nc2ccc(Cl)cc2)ccc1OC(=O)c1ccccc1	4
NC(=S)NC(=S)Nc1ccccc1	-6
N=C1N=Nc2nc(C3(c4nc5n(c4O)C(=N)N=N5)Cc4ccccc4C3=O)c(O)n21 (centres undefined)	-2
Cc1ccc2c3ccc4c(c3n(C)c2c1)C(=O)C=CC4=O	-3
Nc1ccc(F)cc1S	-19
Cc1cc(O)c(C(C)C)cc1C1(c2cc(C(C)C)c(O)cc2C)OC(=O)c2ccccc21	0

IN: Look up growth inhibition: COc1cccc(/C=N/C(/N=C/c2cccc(OC)c2O)c2cccc(OC)c2O)c1O
OUT: 2

* * *

Attribute: growth inhibition
# test: NCI Yeast Anticancer Drug Screen. Data for the rad50EPP+ strain (AID 151);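 also: 0% = growth of vehicle-treated control cultures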
# condition.parameters: S. cerevisiae rad50 mutant strain, at 1.2 µM, stronger effect = higher value
This is part of a sample that, as a whole, favours compounds with a hit. Of some 79,000 tested, about 15% had one in any assay.
Give the number; % is assumed, so skip it.

Known growth inhibition results, listed for orientation:
compound	growth inhibition, %
Cc1cc(NCCCCCCCCNc2cc(C)nc3cc(N)ccc23)c2ccc(N)cc2n1	-47
C=C1CC(CCCl)(c2ccccc2)OC1=O (stereo not given)	0
Cc1nc(-c2cc3cc([N+](=O)[O-])ccc3oc2=O)cs1	-7
COc1ccc2c(c1)n([O-])c1ccccc1[n+]2=O	34
C[C@@](O)(/C=C/[C@H]1CC=CC(=O)O1)[C@@H](C[C@@H](O)\C=C/C=C\C=C\CO)OP(=O)(O)O	18
Cc1c(C)c(C)c(CSC(=N)N)c(C)c1C	-55
CCOC(=O)C#Cc1ccc([N+](=O)[O-])cc1	8
CCOC(=O)CC1(C(=O)OCC)c2[nH]c3ccccc3c2CCN1Cc1ccccc1 (stereo not given)	-7

IN: Look up growth inhibition: COc1nc2c(c(=O)n1C)N=C(c1ccccc1)[C@H](C(CC(=O)c1ccccc1)c1ccccc1)C(c1ccccc1)N2 (stereo not given in full)
OUT: -16
